Where do these numbers come from? They come from paper PMC7044277.

biological target: DRD4 (D4.4 variant) wild-type (Homo sapiens, UniProt P21917); test: Radioligand competition binding, [3H]-N-methylspiperone; conditions: DRD4; [3H]-methylspiperone (0.8-1.0 nM); read-out: Ki
measured-endpoint: Ki

## Task Record lookup: for DRD4 (D4.4 variant) wild-type (Homo sapiens, UniProt P21917), what Ki belongs to CCCCOc1cccc2cc(C(C)NCC3(O)CCCCC3)oc12.Cl (stereo not shown) [O6LE6] ?
## Result > 10 µM

## Task Would you mind doing CCCOc1cccc2cc(C(C)NCC3(O)CCCCC3)oc12.Cl (stereo not shown) [O5LE6] as well?
## Result 6.6 µM

## Task Now consider CCOc1cccc2cc(C(C)NCc3ccccc3)oc12.Cl (stereo not shown) [O4LE9] .
## Result > 10 µM

## Task Query CCOc1cccc2cc(C(C)NCC3(O)CCCC3)oc12.Cl (racemic) [O4LE5] next
## Result > 10 µM

## Task Query CC(NCC1(O)CCCCC1)c1cc2ccccc2o1.Cl (stereo not shown) [O1LE6] next
## Result 5.89 µM

## Task What about CCOc1cccc2cc(C(C)NCC3(O)CC3)oc12.Cl (racemic) [O4LE3] ?
## Result > 10 µM

## Task Same thing, different molecule: CCCCN(C)C(C)C(=O)Nc1cc([N+](=O)[O-])ccc1OC (stereo not shown) [O9LE9]
## Result > 10 µM

## Task Entry CC(NCC1(O)CCCCC1)c1cc2cccc(O)c2o1.Cl (stereo not shown) [O2LE6] please
## Result > 10 µM

## Task Next molecule: COc1cccc2cc(C(C)NCC3(O)CCCCC3)oc12.Cl (stereo not shown) [O3LE6]
## Result > 10 µM

## Task Also, CCOc1cccc2cc(C(C)NCCO)oc12 (stereo not shown) [O4LE1] please.
## Result > 10 µM

## Task And then CCOc1cccc2cc([C@H](C)NCC3(O)CCCCC3)oc12 [O4SE6] , what is it?
## Result > 10 µM

## Task Let us now turn to CCOc1cccc2cc(C(C)NCC3(O)CCCCC3)oc12 (stereo not shown) [O4LE6]
## Result > 10 µM

## Task Next: CCOc1cccc2cc(C(C)NCC3(O)CCC3)oc12.Cl (stereo not shown) [O4LE4]
## Result > 10 µM
